Each record here notes measured Maximum_MFI.
target_under_test: T1, human MSLN-R3 on HEK293T-hMSLN-R3 recombinant cells (human, UniProt Q13421 487-606)
T1 construct: the C-terminal limit is uncertain; also called human MSLN-R3 membrane protein
measurement_protocol: FACS, HEK293T-hMSLN-R3 cells
metric_name: Maximum_MFI (MFI)

| binder | reading_unit | endpoint_value |
| --- | --- | --- |
| F7.33.24-H11 (scFv, not shown: small tags and cut ends, also called S009-F7.33.24 humanized antibody VH2a + VL2) scFv: EVQLVQSGAEVKKPGASVKVSCKASGYTFTSYWMHWVRQAPGQGLEWMGNVNPSNAGSNYNEKFKNRVTITVDKSASTAYMELSSLRSEDTAVYYCAPHYIGSRPGFAYWGQGTLVTVSSGGGGSGGGGSGGGGSDIVMTQTPLSLSVTPGQPASISCKASQNVGTNIAWYLQKPGQSPQALIYSASYRYSGVPDRFSGSGSGTDFTLKISRVEAEDVGVYYCQQYNSYPLTFGGGTKVEIK | MFI | 1590 |
| F7.33.24-H1 (scFv, not shown: small tags and cut ends, also called S009-F7.33.24 humanized antibody VH1 + VL1) scFv: EVQLVQSGAEVKKPGASVKVSCKASGYTFTSYWMHWVRQAPGQRLEWMGNVNPSNGGSNYNEKFKNRVTITVDKSASTAYMELSSLRSEDTAVYYCAPHYIGSRPGFAYWGQGTLVTVSSGGGGSGGGGSGGGGSDIVMTQSPDSLAVSLGERATINCKASQNVGTNIAWYQQKPGQSPKALIYSASYRYSGVPDRFSGSGSGTDFTLTISSLQAEDVAVYYCQQYNSYPLTFGGGTKVEIK | MFI | 2190 |
| F7.33.24-H8 (scFv, not shown: small tags and cut ends, also called S009-F7.33.24 humanized antibody VH2 + VL2) scFv: EVQLVQSGAEVKKPGASVKVSCKASGYTFTSYWMHWVRQAPGQGLEWMGNVNPSNGGSNYNEKFKNRVTITVDKSASTAYMELSSLRSEDTAVYYCAPHYIGSRPGFAYWGQGTLVTVSSGGGGSGGGGSGGGGSDIVMTQTPLSLSVTPGQPASISCKASQNVGTNIAWYLQKPGQSPQALIYSASYRYSGVPDRFSGSGSGTDFTLKISRVEAEDVGVYYCQQYNSYPLTFGGGTKVEIK | MFI | 1400 |
